Values from patent US9212205B2

subjectOfTest: (CUG)109 RNA (SEQ ID NO:8)
test: Filter binding assay (FBA), SEQ ID NO:8
Measured pKd accompanies every entry in the list below.
Recall that pKd is obtained by taking minus log10 of the concentration measured in molar.

# annotated cases, reported pKd shown
Given the molecule NCCCC[C@H](NC(=O)[C@H](CSSC[C@H](NC(=O)[C@@H]1CCCN1C(=O)c1ccc2c(c1)OCO2)C(=O)N[C@@H](CCCCN)C(=O)NCCCN)NC(=O)[C@@H]1CCCN1C(=O)c1ccc2c(c1)OCO2)C(=O)NCCCN , what is its reported pKd?
5.60

What about CCc1nc2ccccc2cc1C(=O)N1CCC[C@H]1C(=O)N[C@@H](CSSC[C@H](NC(=O)[C@@H]1CCCN1C(=O)c1ccc2c(c1)OCO2)C(=O)N[C@@H](CCCCN)C(=O)NCCCN)C(=O)N[C@@H](CCCCN)C(=O)NCCCN ?
5.72

Please do the same for CCc1nc2ccccc2cc1C(=O)N[C@@H](CC(N)=O)C(=O)N[C@@H](CSSC[C@H](NC(=O)[C@@H]1CCCN1C(=O)c1cc2ccccc2nc1CC)C(=O)N[C@@H](CCCCN)C(=O)NCCCN)C(=O)N[C@@H](CCCCN)C(=O)NCCCN as well.
5.68

From here, focus on the item given below.
For the molecule CCc1nc2ccccc2cc1C(=O)N1CCC[C@H]1C(=O)N[C@@H](CSSC[C@H](NC(=O)[C@@H]1CCCN1C(=O)c1cc2ccccc2nc1CC)C(=O)N[C@@H](CCCCN)C(=O)NCCCN)C(=O)N[C@@H](CCCCN)C(=O)NCCCN , what pKd is on record?
5.68

###

subjectOfTest: variant (CUG) stem RNA (SEQ ID NO:9)
test: Filter binding assay (FBA), SEQ ID NO:9
recordedMetric: Kd

Examples with answers:
Find the measured Kd: item NCCCC[C@H](NC(=O)[C@H](CSSC[C@H](NC(=O)[C@@H]1CCCN1C(=O)c1ccc2c(c1)OCO2)C(=O)N[C@@H](CCCCN)C(=O)NCCCN)NC(=O)[C@@H]1CCCN1C(=O)c1ccc2c(c1)OCO2)C(=O)NCCCN , target or system variant (CUG) stem RNA (SEQ ID NO:9).
9.3 µM

Can you handle CCc1nc2ccccc2cc1C(=O)N[C@@H](CC(N)=O)C(=O)N[C@@H](CSSC[C@H](NC(=O)[C@@H]1CCCN1C(=O)c1cc2ccccc2nc1CC)C(=O)N[C@@H](CCCCN)C(=O)NCCCN)C(=O)N[C@@H](CCCCN)C(=O)NCCCN next?
6.4 µM

Another: CCc1nc2ccccc2cc1C(=O)N1CCC[C@H]1C(=O)N[C@@H](CSSC[C@H](NC(=O)[C@@H]1CCCN1C(=O)c1cc2ccccc2nc1CC)C(=O)N[C@@H](CCCCN)C(=O)NCCCN)C(=O)N[C@@H](CCCCN)C(=O)NCCCN
7.1 µM

Here is the next item to consider.
Quick check: Kd on variant (CUG) stem RNA (SEQ ID NO:9), item CCc1nc2ccccc2cc1C(=O)N1CCC[C@H]1C(=O)N[C@@H](CSSC[C@H](NC(=O)[C@@H]1CCCN1C(=O)c1ccc2c(c1)OCO2)C(=O)N[C@@H](CCCCN)C(=O)NCCCN)C(=O)N[C@@H](CCCCN)C(=O)NCCCN ?
4.7 µM

###

Overview of reported pKd across a group of compounds:
subjectOfTest: (CUG) repeat RNA SEQ ID NO:7
test: Fluorescence titration (FT), SEQ ID NO:7
Format: binding
runConditions: SEQ ID NO: 7 + 20 x tRNA
Schema: pKd number; meaning minus log10 of the concentration expressed in molar units.

Examples from the recorded data:
Entry under review: CCc1nc2ccccc2cc1C(=O)N1CCC[C@H]1C(=O)N[C@@H](CSSC[C@H](NC(=O)[C@@H]1CCCN1C(=O)c1cc2ccccc2nc1CC)C(=O)N[C@@H](CCCCN)C(=O)NCCCN)C(=O)N[C@@H](CCCCN)C(=O)NCCCN [dimer 9-9] . Reported pKd?
5.47

What about this compound? CCc1nc2ccccc2cc1C(=O)N[C@@H](CC(N)=O)C(=O)N[C@@H](CSSC[C@H](NC(=O)[C@@H]1CCCN1C(=O)c1cc2ccccc2nc1CC)C(=O)N[C@@H](CCCCN)C(=O)NCCCN)C(=O)N[C@@H](CCCCN)C(=O)NCCCN [dimer 7-9]
5.54

Thanks! And NCCCC[C@H](NC(=O)[C@H](CSSC[C@H](NC(=O)[C@@H]1CCCN1C(=O)c1ccc2c(c1)OCO2)C(=O)N[C@@H](CCCCN)C(=O)NCCCN)NC(=O)[C@@H]1CCCN1C(=O)c1ccc2c(c1)OCO2)C(=O)NCCCN [dimer 8-8] ?
5.62

Please examine the following record next.
For the compound shown here, CCc1nc2ccccc2cc1C(=O)N1CCC[C@H]1C(=O)N[C@@H](CSSC[C@H](NC(=O)[C@@H]1CCCN1C(=O)c1ccc2c(c1)OCO2)C(=O)N[C@@H](CCCCN)C(=O)NCCCN)C(=O)N[C@@H](CCCCN)C(=O)NCCCN [dimer 8-9] , give the reported pKd.
5.38

###

subjectOfTest: HIV-1 frameshift stimulating RNA hairpin (SEQ ID NO:1)
test: Filter binding assay (FBA), SEQ ID NO:1
recordedMetric: Kd (µM)
Kindly provide the numeric value in µM only, without the unit symbol.

Worked cases, Kd given:
Look up Kd for this compound: CCc1nc2ccccc2cc1C(=O)N[C@@H](CC(N)=O)C(=O)N[C@@H](CSSC[C@H](NC(=O)[C@@H]1CCCN1C(=O)c1cc2ccccc2nc1CC)C(=O)N[C@@H](CCCCN)C(=O)NCCCN)C(=O)N[C@@H](CCCCN)C(=O)NCCCN
22

And then NCCCC[C@H](NC(=O)[C@H](CSSC[C@H](NC(=O)[C@@H]1CCCN1C(=O)c1ccc2c(c1)OCO2)C(=O)N[C@@H](CCCCN)C(=O)NCCCN)NC(=O)[C@@H]1CCCN1C(=O)c1ccc2c(c1)OCO2)C(=O)NCCCN , what is it?
41

Now give it for CCc1nc2ccccc2cc1C(=O)N1CCC[C@H]1C(=O)N[C@@H](CSSC[C@H](NC(=O)[C@@H]1CCCN1C(=O)c1ccc2c(c1)OCO2)C(=O)N[C@@H](CCCCN)C(=O)NCCCN)C(=O)N[C@@H](CCCCN)C(=O)NCCCN too.
16

Next, consider the following compound.
Quick one: Kd for CCc1nc2ccccc2cc1C(=O)N1CCC[C@H]1C(=O)N[C@@H](CSSC[C@H](NC(=O)[C@@H]1CCCN1C(=O)c1cc2ccccc2nc1CC)C(=O)N[C@@H](CCCCN)C(=O)NCCCN)C(=O)N[C@@H](CCCCN)C(=O)NCCCN ?
24

###

subjectOfTest: (CUG) loop RNA (SEQ ID NO:11)
test: Fluorescence titration (FT), SEQ ID NO:11
Type: binding
Design: key: NC = Not Calculable.; NS = Not Saturatable
Method: To test specificity and to confirm the determined binding affinities, filter binding assays and fluorescence titrations were performed with SEQ ID NOS: 7-11 (Table 5), and the HIV-1 frameshift stimulating RNA hairpin used in preceding Examples (SEQ ID NO:1, Table 5). Fluorescence titrations were performed using a Varian Cary Eclipse spectrophotometer. […] Changes in fluorescence emission at 518 nm (excitation at 490 nm) were measured. […]
recordedMetric: KD

Can you look up the measured KD of CCc1nc2ccccc2cc1C(=O)N1CCC[C@H]1C(=O)N[C@@H](CSSC[C@H](NC(=O)[C@@H]1CCCN1C(=O)c1ccc2c(c1)OCO2)C(=O)N[C@@H](CCCCN)C(=O)NCCCN)C(=O)N[C@@H](CCCCN)C(=O)NCCCN for me?
NC

Then what about the compound NCCCC[C@H](NC(=O)[C@H](CSSC[C@H](NC(=O)[C@@H]1CCCN1C(=O)c1ccc2c(c1)OCO2)C(=O)N[C@@H](CCCCN)C(=O)NCCCN)NC(=O)[C@@H]1CCCN1C(=O)c1ccc2c(c1)OCO2)C(=O)NCCCN ?
NC

Input CCc1nc2ccccc2cc1C(=O)N[C@@H](CC(N)=O)C(=O)N[C@@H](CSSC[C@H](NC(=O)[C@@H]1CCCN1C(=O)c1cc2ccccc2nc1CC)C(=O)N[C@@H](CCCCN)C(=O)NCCCN)C(=O)N[C@@H](CCCCN)C(=O)NCCCN
NC

Please answer likewise for CCc1nc2ccccc2cc1C(=O)N1CCC[C@H]1C(=O)N[C@@H](CSSC[C@H](NC(=O)[C@@H]1CCCN1C(=O)c1cc2ccccc2nc1CC)C(=O)N[C@@H](CCCCN)C(=O)NCCCN)C(=O)N[C@@H](CCCCN)C(=O)NCCCN
NS

###

subjectOfTest: variant (CUG) stem RNA (SEQ ID NO:9)
test: Fluorescence titration (FT), SEQ ID NO:9
Type: binding
recordedMetric: pKd
Note on pKd: it is the negative log10 of concentration, concentration in mol/L.

Below: 3 molecules and their reported pKd.
Which value of pKd has been reported for CCc1nc2ccccc2cc1C(=O)N1CCC[C@H]1C(=O)N[C@@H](CSSC[C@H](NC(=O)[C@@H]1CCCN1C(=O)c1ccc2c(c1)OCO2)C(=O)N[C@@H](CCCCN)C(=O)NCCCN)C(=O)N[C@@H](CCCCN)C(=O)NCCCN [dimer 8-9] in the records?
5.59

Repeat with CCc1nc2ccccc2cc1C(=O)N1CCC[C@H]1C(=O)N[C@@H](CSSC[C@H](NC(=O)[C@@H]1CCCN1C(=O)c1cc2ccccc2nc1CC)C(=O)N[C@@H](CCCCN)C(=O)NCCCN)C(=O)N[C@@H](CCCCN)C(=O)NCCCN [dimer 9-9]
5.77

Entry to check: CCc1nc2ccccc2cc1C(=O)N[C@@H](CC(N)=O)C(=O)N[C@@H](CSSC[C@H](NC(=O)[C@@H]1CCCN1C(=O)c1cc2ccccc2nc1CC)C(=O)N[C@@H](CCCCN)C(=O)NCCCN)C(=O)N[C@@H](CCCCN)C(=O)NCCCN [dimer 7-9]
5.80

Could you now consider this next molecule?
Using the record for NCCCC[C@H](NC(=O)[C@H](CSSC[C@H](NC(=O)[C@@H]1CCCN1C(=O)c1ccc2c(c1)OCO2)C(=O)N[C@@H](CCCCN)C(=O)NCCCN)NC(=O)[C@@H]1CCCN1C(=O)c1ccc2c(c1)OCO2)C(=O)NCCCN [dimer 8-8] , report its pKd.
5.68
